# TARGET: Carbonic anhydrase 2 (Homo sapiens, UniProt P00918)
pKi: −log10 of the molar value.
TEST READOUT: pKi

>>> df
                                   compound  test_readout  result_value
0  NC1CCc2c(ccc(O)c2O)C1 (centres undefined)           pKi          6.42
1  NC1Cc2cc(Br)c(Br)cc2C1 [CA inhibitor, 5]           pKi          3.33
2  NC1Cc2ccc(Br)cc2C1 (centres undefined) [CA inhibitor, 6]           pKi          3.84
3  NC1CCc2cc(O)c(O)cc2C1 (centres undefined)           pKi          6.36
